Assay: physchem
Details: PAMPA, pH 7.4
READOUT_TYPE: Papp (×10⁻⁶ cm/s)

Sample answers from the record:
COMPOUND	VALUE_REPORTED
O=S(=O)(Nc1nccs1)c1cc(Cl)c(NC[C@H]2CC[C@H](O)CC2)cc1F	20.7
O=S(=O)(Nc1nccs1)c1cc(Cl)c(NC[C@H]2CCCOC2)cc1F	37.7
O=S(=O)(Nc1nccs1)c1cc(Cl)c(NCC2CCCC3(C2)OCCO3)cc1F (stereo not given)	41.9
O=S(=O)(Nc1nccs1)c1cc(Cl)c(NCC2CCCCO2)cc1F (stereo not given)	61
O=S(=O)(Nc1nccs1)c1cc(Cl)c(NC[C@H]2CCCO[C@@H]2c2ccccc2)cc1F (racemic)	73.5

I. CC(C)(C)[C@H]1OCCC[C@@H]1CNc1cc(F)c(S(=O)(=O)Nc2nccs2)cc1Cl (racemic)
II. O=S(=O)(Nc1nccs1)c1cc(Cl)c(NC[C@H]2CCC[C@H](O)C2)cc1F (racemic)
III. CC(C)(C)[C@@H]1OCCC[C@@H]1CNc1cc(F)c(S(=O)(=O)Nc2nccs2)cc1Cl (racemic)
IV. O=S(=O)(Nc1nccs1)c1cc(Cl)c(NC[C@H]2CC[C@@H](O)CC2)cc1F
Could you please order the items by Papp, going from the lowest number to the highest? The labels, placed in the requested order, form the answer.
IV, II, III, I

----------
Experiment: Plasma concentration in mouse model of complete Freund's adjuvant-induced inflammatory pain at 30 mg/kg, po measured after 90 mins post dose
Assay type: ADME, organism-based
READOUT_TYPE: concentration at 1.5 h (nM)
Use nM as the unit, but write only the number.

Specify concentration at 1.5 h for O=S(=O)(Nc1nccs1)c1cc(Cl)c(NC[C@H]2CCCOC2)cc1F and stop.
1130

----------
Assay: physchem
Conditions: PAMPA, pH 5.5
READOUT_TYPE: Papp (×10⁻⁶ cm/s)

The cases that follow already have their Papp on record.
MOLECULE	VALUE_REPORTED
O=S(=O)(Nc1nccs1)c1cc(Cl)c(NC[C@H]2CCC[C@@H](O)C2)cc1F (racemic)	21.6
O=S(=O)(Nc1nccs1)c1cc(Cl)c(NC[C@H]2CCCOC2)cc1F	47.7
O=S(=O)(Nc1nccs1)c1cc(Cl)c(NCC2CCCC3(C2)OCCO3)cc1F (stereo not drawn)	45.1
O=S(=O)(Nc1nccs1)c1cc(Cl)c(NC[C@H]2CC[C@H](O)CC2)cc1F	54.6
O=S(=O)(Nc1nccs1)c1cc(Cl)c(NC[C@H]2CCCO[C@@H]2c2ccccc2)cc1F (racemic)	42.8
O=S(=O)(Nc1nccs1)c1cc(Cl)c(NCC2CCCCO2)cc1F (stereo not drawn)	61

A. O=S(=O)(Nc1nccs1)c1cc(Cl)c(NC[C@H]2CC[C@@H](O)CC2)cc1F
B. O=S(=O)(Nc1nccs1)c1cc(Cl)c(NC[C@H]2CCC[C@H](O)C2)cc1F (racemic)
Higher Papp between A and B ? Give the label of your selection.
A
(A: 46.4 ×10⁻⁶ cm/s, B: 21.6 ×10⁻⁶ cm/s)
